target: Protein arginine N-methyltransferase 1 (Homo sapiens) (UniProt Q99873); assay: PRMT1 methyltransferase inhibitors, confirmation, biochemical, fluorescence polarization, triplicate (AID 687036); conditions: recombinant His-PRMT1, activity-based probe fluorescence polarization; at 2.79 µM
Sequence (Q99873 whole entry, looked up): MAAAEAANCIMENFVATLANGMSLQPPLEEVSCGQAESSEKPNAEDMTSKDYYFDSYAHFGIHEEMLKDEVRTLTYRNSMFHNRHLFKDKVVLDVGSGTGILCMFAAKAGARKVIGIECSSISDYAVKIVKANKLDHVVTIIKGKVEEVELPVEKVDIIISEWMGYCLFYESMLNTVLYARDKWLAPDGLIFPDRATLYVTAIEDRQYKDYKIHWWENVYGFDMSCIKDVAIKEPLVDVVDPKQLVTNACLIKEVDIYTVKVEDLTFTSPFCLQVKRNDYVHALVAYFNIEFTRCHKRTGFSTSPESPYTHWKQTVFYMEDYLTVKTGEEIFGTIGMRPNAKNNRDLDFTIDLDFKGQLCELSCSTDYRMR
The campaign covered roughly 3,300 compounds. About 1,400 (42%) were called active.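 The calls were made as follows: active = mean inhibition across replicates above the hit cutoff derived for the earlier primary screen (cut at about 22% in these data); inactive = the rest.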 The set was probably picked from earlier hits. Only a sample is shown.
Outcomes: active, inactive

* N#Cc1c(N2CCCCC2)nc(N)c2c(N)nc(SCC(=O)O)cc12 | active
* CCc1n[nH]c(=S)n1/N=C/c1c[nH]c2ccc(Br)cc12 | inactive
* CC(NC(=O)CSc1nc2c(cc1C#N)CN(C)CC2)c1ccccc1 (stereo unspecified) | inactive
* Cc1ccc(-n2nc(-c3ccco3)cc2C(=O)NCc2cccnc2)cc1 | inactive
* CCc1ccc(NC2Nc3cc(C)nn3S2)cc1 (stereo unspecified) | inactive
* CO/N=C(\C(=O)N[C@@H]1C(=O)N2C(C(=O)O)=C(COC(C)=O)CS[C@H]12)c1csc(N)n1 (stereo in doubt) | inactive
* Nc1c(C(=O)c2cccs2)sc2nsc(SCCN3CCCCC3)c12 | inactive
* COc1cc(NC(=S)N2CCCC(C)C2)c(OC)cc1Cl (stereo unspecified) | active
* Cc1cccc(CS(=O)(=O)c2ncc(Cl)c(C(=O)Nc3ccc(F)cc3)n2)c1 | inactive
* COc1cccc(NC(=O)CSc2nccn(-c3ccc4c(c3)OCCO4)c2=O)c1 | active
* Cc1cc(C)cc(C(=O)NC2C(=O)N3C(C(=O)O)=C(CSc4nnc(C)s4)CSC23)c1 (stereo unspecified) | inactive
* CCc1ccc(-n2c(=S)sc3c(=O)n(-c4ccccc4OC)c(=S)[nH]c32)cc1 | inactive
* Cc1cc2nc3c(=O)[nH]c(=O)nc-3n(C[C@H](O)[C@H](O)[C@H](O)CO)c2cc1C | active
* CC(=O)NC1=NC(=O)CS1 | inactive
* CC1=C(C)CC2C(=O)N(c3cccc4ccccc34)C(=O)C2C1 (stereo unspecified) | active
* COc1cccc2c1C(=O)c1c(O)c3c(c(O)c1C2=O)CC(O)(C(C)=NNC(=O)c1ccc(Cl)c(Cl)c1)CC3OC1CC(N)C(O)C(C)O1 (stereo unspecified) | active
* COc1ccc(-c2cc3c(c4c2ccn4C)C2CCC3C2)cn1 (stereo unspecified) | inactive
* O=C(c1ccc[nH]c1=S)N1CCN(S(=O)(=O)c2ccc(Br)cc2Cl)CC1 | inactive
* C=CCn1c(=S)[nH]c2scc(-c3ccco3)c2c1=O | active
* COc1cccc(NC(=O)COC(=O)/C=C/c2ccco2)c1 | inactive
* COc1cc(C2CC(=O)N3CN(Cc4ccccc4)CSC3=C2C#N)ccc1OCc1ccccc1 (stereo unspecified) | inactive

----------
biological target: Protein arginine N-methyltransferase 1 (Homo sapiens); assay: PRMT1 methyltransferase inhibitors, confirmation, biochemical, fluorescence polarization, triplicate (AID 687036); conditions: recombinant His-PRMT1, activity-based probe fluorescence polarization; at 2.79 µM; stronger effect = higher value
In all, about 3,300 compounds went through this assay and about 1,400 (42%) were called active. The set was probably picked from earlier hits. The list is a sample of the results.
Recorded inhibition by entry
Parameter: inhibition (%)

* Oc1ccc2ccc3cccc[n+]3c2c1 | 155
* c1ccc(Cc2c(-c3ccco3)nc3c4ccccc4ccn23)cc1 | 9.04
* CCOC(=O)c1cc2n(c1N)-c1ccccc1C2=O | 116
* Cc1ccc(-c2nn(-c3ccccc3)cc2/C=C2\SC(=S)N(CCCCCC(=O)O)C2=O)o1 | 18.1
* Cc1sc(NC(=O)c2ccc3ncsc3c2)c(C(N)=O)c1C | 3.89
* COCCNC(=S)Nc1cc(S(=O)(=O)N2CCOCC2)ccc1N1CCCCC1 | 4.34
* O=C(NC1=CC(=O)c2ccccc2C1=O)c1ccccc1 | 42.6
* O=C(O)c1ccccc1CSc1nc2ccccc2s1 | 33.2
* Cc1ccc(-c2nn(-c3ccccc3)cc2CN(Cc2ccccc2)C(=O)CCC(=O)O)o1 | 21.8
* NC(=O)c1c(Nc2nc3c(F)cccc3s2)sc2c1CCCC2 | -3.26
* c1ccc(C(=NNc2nc3ccccc3s2)c2ccccn2)cc1 | 22.1
